# Target entity: T1, alpha-s1 casein from Bos taurus
# T1 chain: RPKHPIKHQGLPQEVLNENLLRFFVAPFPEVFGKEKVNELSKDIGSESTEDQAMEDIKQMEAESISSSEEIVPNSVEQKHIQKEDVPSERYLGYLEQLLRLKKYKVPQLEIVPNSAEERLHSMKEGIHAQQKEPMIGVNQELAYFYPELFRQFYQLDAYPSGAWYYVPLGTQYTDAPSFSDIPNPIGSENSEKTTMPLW
Result type: αs1 CN, 6 hours, 11° C. (Volume)

INSERT INTO measurements (protein, result_type, measured_number) VALUES
  ('camel chymosin variant #141 (F223N) (protein) GKVAREPLTSYLDSQYFGKIYIGTPPQEFTVVFDTGSSDLWVPSIYCKSNVCKNHHRFDPRKSSTFRNLGKPLSIHYGTGSMEGFLGYDTVTVSNIVDPNQTVGLSTEQPGEVFTYSEFDGILGLAYPSLASEYSVPVFDNMMDRHLVARDLFSVYMDRNGQGSMLTLGAIDPSYYTGSLHWVPVTLQQYWQFTVDSVTINGVAVACVGGCQAILDTGTSVLNGPSSDILKIQMAIGATENRYGEFDVNCGNLRSMPTVVFEINGRDYPLSPSAYTSKDQGFCTSGFQGDNNSELWILGDVFIREYYSVFDRANNRVGLAKAI', 'αs1 CN, 6 hours, 11° C.', '3.57e+07');
